assay: Volume of distribution in mouse; assay type: ADME, organism-based; settings: in vivo
Readings of Vd for the listed compounds
READOUT_LABEL: Vd (L/kg)

In [3]: df
Out[3]:
                                   compound  numeric_value
0  CC#CC(CC(=O)O)c1ccc(Oc2ccc(C(F)(F)F)cc2OC(F)F)cc1 (racemic)           0.31
1  CC#C[C@@H](c1ccc(Oc2ccc(C(F)(F)F)cc2OC(F)F)cc1)[C@H]1OC(=O)NC1=O (racemic)           0.47

---

test: Oral bioavailability in mouse; assay type: ADME, organism-based; settings: in vivo
READOUT_LABEL: bioavailability

>>> df
                                   compound  result
0  CC#C[C@@H](c1ccc(Oc2ccc(C(F)(F)F)cc2OC(F)F)cc1)[C@H]1OC(=O)NC1=O (racemic)     93%
1  CC#CC(CC(=O)O)c1ccc(Oc2ccc(C(F)(F)F)cc2OC(F)F)cc1 (racemic)    112%

---

Item-by-item account of EC50
molecular target: Free fatty acid receptor 1 (Homo sapiens, UniProt O14842); test: Agonist activity at human GPR40 expressed in CHO cells assessed as intracellular calcium mobilization by FLIPR assay; type: functional, cell-based
Sequence (O14842 whole entry): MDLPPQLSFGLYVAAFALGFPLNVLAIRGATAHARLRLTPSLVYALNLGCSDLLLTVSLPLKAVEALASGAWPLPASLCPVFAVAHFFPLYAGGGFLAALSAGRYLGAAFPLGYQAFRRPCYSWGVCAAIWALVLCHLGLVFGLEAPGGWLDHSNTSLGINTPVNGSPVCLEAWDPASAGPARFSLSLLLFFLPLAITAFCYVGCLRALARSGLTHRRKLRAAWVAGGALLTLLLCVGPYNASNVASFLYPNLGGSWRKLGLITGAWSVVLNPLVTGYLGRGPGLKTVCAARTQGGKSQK
READOUT_LABEL: EC50

>>> print(df.to_string())
                                    compound  readout_label   result
 0  CC#CC(CC(=O)O)c1ccc(Oc2nccc3ccccc23)cc1 (racemic)           EC50   394 nM
 1  CC#CC(c1ccc(OCc2ccccc2)cc1)C1OC(=O)NC1=O (racemic)           EC50   954 nM
 2  CC#CC(CC(=O)O)c1ccc(OC2CCCc3nc(-c4ccc(C)cc4)sc32)cc1 (mixture of isomers)           EC50    51 nM
 3  CC#CC(CC(=O)O)c1ccc(Oc2nccnc2C#N)cc1 (racemic)           EC50  1580 nM
 4  CC#CC(CC(=O)O)c1ccc(Oc2ncc(Br)cn2)cc1 (racemic)           EC50  1570 nM
 5  CC#CC(CC(=O)O)c1ccc(Oc2ccc(C#N)cc2Cl)cc1 (racemic)           EC50    42 nM
 6  CC#C[C@]1(c2ccc(Oc3ccc(C(F)(F)F)cc3Cl)cc2)C[C@@H]1C(=O)O (racemic)           EC50  2820 nM
 7  CC#CC(CC(=O)O)c1ccc(Oc2ccc(C#N)c3ccccc23)cc1 (racemic)           EC50    53 nM
 8  CC(CC(=O)O)c1ccc(Oc2ccc(Cl)cc2Cl)cc1 (racemic)           EC50  2480 nM
 9  CC#CC(CC(=O)O)c1ccc(Oc2ccc(C#N)cc2Br)cc1 (racemic)           EC50    85 nM
10  CC#C[C@H](c1ccc(Oc2ccc(C(F)(F)F)cc2OC(F)F)cc1)[C@H]1OC(=O)NC1=O (racemic)           EC50  7580 nM

---

target: Free fatty acid receptor 1 (Mus musculus, UniProt Q76JU9); assay: Agonist activity at mouse GPR40 expressed in CHO cells assessed as intracellular calcium mobilization by FLIPR assay
Sequence (Q76JU9 whole entry): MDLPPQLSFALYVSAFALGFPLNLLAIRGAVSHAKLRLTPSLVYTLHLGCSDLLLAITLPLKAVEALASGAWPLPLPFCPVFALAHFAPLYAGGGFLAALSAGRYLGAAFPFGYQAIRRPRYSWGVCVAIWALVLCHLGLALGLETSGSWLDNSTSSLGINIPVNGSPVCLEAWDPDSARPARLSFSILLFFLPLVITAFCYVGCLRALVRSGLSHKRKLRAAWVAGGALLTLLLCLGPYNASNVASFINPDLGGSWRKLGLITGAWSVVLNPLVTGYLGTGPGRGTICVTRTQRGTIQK
pEC50: −log10 of the molar value.
READOUT_LABEL: pEC50

>>> df
                                    molecule  readout_label  relation_qualifier  numeric_value
 0  CC#C[C@]1(c2ccc(Oc3ccc(C(F)(F)F)cc3Cl)cc2)C[C@@H]1C(=O)O (racemic)          pEC50                   =           6.06
 1  CC#CC(CC(=O)O)c1ccc(Oc2ncc(C(F)(F)F)cc2Cl)cc1 (racemic)          pEC50                   =           7.02
 2  CC#CC(CC(=O)O)c1ccc(Oc2ccc(C#N)c3ccccc23)cc1 (racemic)          pEC50                   =           7.03
 3  CC#CC(CC(=O)O)c1ccc(Oc2nccnc2C#N)cc1 (racemic)          pEC50                   =           6.01
 4  CC#CC(CC(=O)O)c1ccc(Oc2ccc(C(F)(F)F)cc2OC(F)F)cc1 (racemic)          pEC50                   =           7.11
 5  CC#CC(CC(=O)O)c1ccc(Oc2ccc(C(F)(F)F)cc2C)cc1 (racemic)          pEC50                   =           6.90
 6  CC#CC(c1ccc(Oc2ccc(C(F)(F)F)cc2OC(F)F)cc1)C1OC(=O)NC1=O (racemic)          pEC50                   =           6.58
 7  CC#CC(c1ccc(OCc2ccccc2)cc1)C1OC(=O)NC1=O (racemic)          pEC50                   =           5.43
 8  CC#CC(CC(=O)O)c1ccc(Oc2ccc(C#N)cc2Br)cc1 (racemic)          pEC50                   =           7.06
 9  CC#C[C@@H](c1ccc(Oc2ccc(C(F)(F)F)cc2OC(F)F)cc1)[C@H]1OC(=O)NC1=O (racemic)          pEC50                   =           6.87
10  CC#CC(CC(=O)O)c1ccc(O[C@@H]2CCc3ccccc32)cc1 (mixture of isomers)          pEC50                   =           7.33
11  CC#CC(CC(=O)O)c1ccc(Oc2ccc(C#N)cc2Cl)cc1 (racemic)          pEC50                   =           7.32
12  CC#CC(CC(=O)O)c1ccc(Oc2nccc3ccccc23)cc1 (racemic)          pEC50                   =           6.83
13  CC#C[C@]1(c2ccc(Oc3ccc(C(F)(F)F)cc3Cl)cc2)C[C@H]1C(=O)O (racemic)          pEC50                   <           4.40
14  CC#CC(CC(=O)O)c1ccc(Oc2ccc(C(F)(F)F)c3ccccc23)cc1 (racemic)          pEC50                   =           5.90
15  CC#CC(CC(=O)O)c1ccc(OC2CCCc3nc(-c4ccc(C)cc4)sc32)cc1 (mixture of isomers)          pEC50                   =           7.00
16  CC#CC(CC(=O)O)c1ccc(Oc2ncc(Br)cn2)cc1 (racemic)          pEC50                   =           5.83
17  CC#CC(CC(=O)O)c1ccc(OC2CCCC2)cc1 (racemic)          pEC50                   =           6.91

Data provenance: ChEMBL document CHEMBL1777807
